# protocol-notes: Phase II AD study: plasma PK samples
# Assay type: in vivo, human
# reported-conditions: human, plasma, topical, 0.5 % cream BID, Subject 111301; 0.5% BID; Week 4
property-measured: concentration at 4 week (ng/mL)
Numbers only here, please. The scale is ng/mL.

q: So what's the measured concentration at 4 week for this one? CC(C)c1c(O)cc(/C=C/c2ccccc2)cc1O [Tapinarof, 3,5-Dihydroxy-4-isopropyl-trans-stilbene]
a: 0.649

----------
# protocol-notes: Phase II AD study: plasma PK samples
# Type: in vivo, human
# reported-conditions: human, plasma, topical, 1 % cream BID, Subject 110604; 1% BID; Week 12
property-measured: concentration at 12 week (ng/mL)
Respond numerically; units are ng/mL and should not be typed.

q: Given the molecule CC(C)c1c(O)cc(/C=C/c2ccccc2)cc1O [Tapinarof, 3,5-Dihydroxy-4-isopropyl-trans-stilbene] , what is its reported concentration at 12 week?
a: 0.311

----------
# protocol-notes: Phase II AD study: plasma PK samples
# Type: in vivo, human
# reported-conditions: human, plasma, topical, 0.5 % cream BID, Subject 111301; 0.5% BID; Week 1
property-measured: concentration at 1 week (ng/mL)
Give the number; ng/mL is assumed, so skip it.

q: For the molecule CC(C)c1c(O)cc(/C=C/c2ccccc2)cc1O [Tapinarof, 3,5-Dihydroxy-4-isopropyl-trans-stilbene] , what concentration at 1 week is on record?
a: 6.09

----------
# protocol-notes: Phase II AD study: plasma PK samples
# Format: in vivo, human
# reported-conditions: human, plasma, topical, 1 % cream BID, Subject 110604; 1% BID; Week 2
property-measured: concentration at 2 week (ng/mL)
Please give a number only; it is taken to be in ng/mL.

q: Item CC(C)c1c(O)cc(/C=C/c2ccccc2)cc1O [Tapinarof, 3,5-Dihydroxy-4-isopropyl-trans-stilbene] has what recorded concentration at 2 week?
a: 0.266

----------
# protocol-notes: Phase II AD study: plasma PK samples
# Type: in vivo, human
# reported-conditions: human, plasma, topical, 1 % cream BID, Subject 110406; 1% BID; Week 8
# Method: Pharmacokinetics: A total of 5 blood samples for PK analysis of GSK2894512 were collected from each subject over the clinic visits at Weeks 1, 2, 4, 8, and 12. Plasma analysis was performed under the management of Bioanalytical Science and Toxicokinetics, DMPK, GSK. […]
property-measured: concentration at 8 week (ng/mL)
Give the number; ng/mL is assumed, so skip it.

q: Recorded concentration at 8 week of CC(C)c1c(O)cc(/C=C/c2ccccc2)cc1O [Tapinarof, 3,5-Dihydroxy-4-isopropyl-trans-stilbene] , please.
a: 0.514

----------
# protocol-notes: Phase II AD study: plasma PK samples
# Format: in vivo, human
# reported-conditions: human, plasma, topical, 1 % cream BID, Subject 110406; 1% BID; Week 2
property-measured: concentration at 2 week

q: concentration at 2 week lookup needed for CC(C)c1c(O)cc(/C=C/c2ccccc2)cc1O [Tapinarof, 3,5-Dihydroxy-4-isopropyl-trans-stilbene] , thanks.
a: 0.347 ng/mL

----------
# protocol-notes: Phase II AD study: plasma PK samples
# Type: in vivo, human
# reported-conditions: human, plasma, topical, 0.5 % cream BID, Subject 111301; 0.5% BID; Week 2
# Experimental: Pharmacokinetics: A total of 5 blood samples for PK analysis of GSK2894512 were collected from each subject over the clinic visits at Weeks 1, 2, 4, 8, and 12. Plasma analysis was performed under the management of Bioanalytical Science and Toxicokinetics, DMPK, GSK. […]
property-measured: concentration at 2 week (ng/mL)
Just the number in ng/mL, nothing appended.

q: Requested field: concentration at 2 week. Item: CC(C)c1c(O)cc(/C=C/c2ccccc2)cc1O [Tapinarof, 3,5-Dihydroxy-4-isopropyl-trans-stilbene]
a: 0.438

Data origin: patent US12569453B2
